biological target: UniProt P23921
Sequence (P23921 whole entry): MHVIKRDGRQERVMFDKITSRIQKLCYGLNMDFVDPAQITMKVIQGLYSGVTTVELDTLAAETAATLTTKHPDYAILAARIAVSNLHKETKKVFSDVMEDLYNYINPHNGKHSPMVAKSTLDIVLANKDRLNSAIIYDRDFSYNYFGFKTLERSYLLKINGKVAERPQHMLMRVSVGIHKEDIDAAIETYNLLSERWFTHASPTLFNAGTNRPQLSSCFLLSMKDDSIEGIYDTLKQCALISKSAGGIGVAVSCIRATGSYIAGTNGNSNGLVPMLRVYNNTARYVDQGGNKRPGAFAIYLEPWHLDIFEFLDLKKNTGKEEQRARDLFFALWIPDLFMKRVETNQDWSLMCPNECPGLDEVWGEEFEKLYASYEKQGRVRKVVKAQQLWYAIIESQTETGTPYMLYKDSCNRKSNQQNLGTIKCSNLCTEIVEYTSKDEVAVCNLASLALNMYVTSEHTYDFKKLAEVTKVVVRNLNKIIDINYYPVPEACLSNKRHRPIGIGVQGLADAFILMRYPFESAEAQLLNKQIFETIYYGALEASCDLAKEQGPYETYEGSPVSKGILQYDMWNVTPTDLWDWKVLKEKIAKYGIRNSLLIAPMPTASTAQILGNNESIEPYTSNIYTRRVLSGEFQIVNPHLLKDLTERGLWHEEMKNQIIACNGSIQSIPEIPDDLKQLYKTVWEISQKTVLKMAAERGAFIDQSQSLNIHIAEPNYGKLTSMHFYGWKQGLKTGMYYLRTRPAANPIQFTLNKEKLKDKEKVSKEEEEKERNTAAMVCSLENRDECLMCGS
pIC50: −log10 of the molar value.
Consider the following molecules; for each one, report its pIC50.

Fill in the blank: the reported pIC50 of Cc1ccc(F)c([C@@H](C)[C@@H](c2n[nH]c(=O)o2)N2CCOc3cc(Cl)ncc3S2(=O)=O)c1C [Example 17] is ____.
5.00 to 6.00

Param item = CC(=O)c1c(Cl)ccc2c1OCCN([C@H](c1n[nH]c(=O)o1)[C@H](C)c1c(F)ccc(C)c1C)S2(=O)=O ; retrieve measured pIC50.
> 7.70

So what does the record say about pIC50 for Cc1ccc(F)c([C@@H](C)[C@@H](c2n[nH]c(=O)o2)N2CN(C3CNC3)c3cc(Cl)ccc3S2(=O)=O)c1C ?
7.00 to 7.70

Please give the measured pIC50 for this molecule: CC(=O)c1cc(Cl)cc2c1S(=O)(=O)N([C@H](c1n[nH]c(=O)o1)[C@H](C)c1c(F)ccc(C)c1C)CN2C1CC1
> 7.70

Bench note: what pIC50 did Cc1ccc(F)c([C@@H](C)[C@@H](c2n[nH]c(=O)o2)N2CN(C3CCOCC3)c3cc(Cl)ccc3S2(=O)=O)c1C show?
> 7.70

Fill in the blank: the reported pIC50 of COCCCN1CN([C@H](c2n[nH]c(=O)o2)[C@H](C)c2c(F)ccc(C)c2C)S(=O)(=O)c2ccc(Cl)cc21 is ____.
> 7.70

Suppose we examine the molecule Cc1ccc(F)c([C@@H](C)[C@@H](c2n[nH]c(=O)o2)N2CN(C3CCCOC3)c3cc(Cl)ccc3S2(=O)=O)c1C (stereo in doubt) [Example 43] ; what pIC50 value has been reported?
> 7.70
